- Test system: Streptococcus pneumoniae
- assayOverview: In vitro antibacterial activity against Streptococcus pneumoniae 5649 (efflux-resistant strain bearing a mef (E) gene)
- Format: functional
attributeMeasured: MIC (µg/mL)
Respond numerically; units are µg/mL and should not be typed.

Req: Tell me its MIC given `CC[C@H]1OC(=O)[C@H](C)C(=O)[C@H](C)[C@@H](O[C@@H]2O[C@H](C)C[C@H](N(C)C)[C@H]2O)[C@](C)(OC)C[C@@H](C)C(=O)[C@H](C)[C@H]2N(CCCCn3cnc(-c4cccnc4)c3)C(=O)O[C@]12C` as the entry.
Resp: 0.25

###

- Test system: Streptococcus pneumoniae
- assayOverview: In vitro antibacterial activity against Streptococcus pneumoniae 5649 (efflux-resistant strain bearing a mef (E) gene)
- Assay type: functional
attributeMeasured: MIC
Write your answer as a measured quantity: the number, then the unit.

| structureSmilesString | MIC |
| --- | --- |
| CC[C@H]1OC(=O)[C@H](C)C(=O)[C@H](C)[C@@H](O[C@@H]2O[C@H](C)C[C@H](N(C)C)[C@H]2O)[C@@](C)(OC)C[C@@H](C)/C(=N\OCCNCCCOCCCCOCCCNCc2ccc3ccccc3c2)[C@H](C)[C@@H](O)[C@]1(C)O | 1 µg/mL |

Here's the next entry for you.
Req: Return value of MIC for input `CC[C@H]1OC(=O)[C@H](C)C(=O)[C@H](C)[C@@H](O[C@@H]2O[C@H](C)C[C@H](N(C)C)[C@H]2O)[C@@](C)(OC)C[C@@H](C)/C(=N\OCCNCCCNCc2ccc(Oc3ccccc3)cc2)[C@H](C)[C@@H](O)[C@]1(C)O` , no commentary.
Resp: 1 µg/mL
